- assay_target: p50/RelA-FL: p50 subunit (39-350);RelA-RHD (no TAD) (murine;murine, UniProt P25799;Q04207 39-350;19-321, |)
- Sequence (P25799 39-350, chain 1 of 2): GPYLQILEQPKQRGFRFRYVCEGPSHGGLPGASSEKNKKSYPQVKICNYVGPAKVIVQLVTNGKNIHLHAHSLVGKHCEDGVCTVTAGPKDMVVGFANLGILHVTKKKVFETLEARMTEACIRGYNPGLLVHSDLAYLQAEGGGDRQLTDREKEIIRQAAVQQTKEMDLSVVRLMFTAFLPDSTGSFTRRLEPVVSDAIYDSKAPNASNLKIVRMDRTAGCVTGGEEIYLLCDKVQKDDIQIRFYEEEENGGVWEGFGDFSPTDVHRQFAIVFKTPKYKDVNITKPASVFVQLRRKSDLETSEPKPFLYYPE
- Sequence (Q04207 19-321, chain 2 of 2): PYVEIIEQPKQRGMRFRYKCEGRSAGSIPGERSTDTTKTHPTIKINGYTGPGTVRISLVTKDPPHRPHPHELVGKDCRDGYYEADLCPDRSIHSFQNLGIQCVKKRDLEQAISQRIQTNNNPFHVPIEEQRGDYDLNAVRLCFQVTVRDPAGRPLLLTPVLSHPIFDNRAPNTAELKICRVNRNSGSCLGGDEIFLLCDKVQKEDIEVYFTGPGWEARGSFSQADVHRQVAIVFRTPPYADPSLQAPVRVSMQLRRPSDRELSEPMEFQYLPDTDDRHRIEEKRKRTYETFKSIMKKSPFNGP
- procedure_summary: fluorescence anisotropy; SEC buffer 25 mM Tris pH 7.5, 150 mM NaCl, 0.5 mM EDTA, 1 mM DTT (FA buffer not stated explicitly; 5 nM DNA, RT incubation, read at 25 C); EMSA: SEC buffer 1:1
- conditions: protein: recombinant;recombinant; tags: N-terminal His6;none; copies: 1;1; label: 5' fluorescein (FITC); hairpin
Recorded measurements of pKd, one per entry
// returns pKd (minus log10 of molar concentration), number only

[[record]]
binder = "GGGAAAGTACTCCCCCAGTACTTTCCC (structured_DNA, 5' 5AmMC6 amino linker) [Urokinase (UK) hairpin]"
experimental_result = 8.20


// query Supply reported pKd belonging to this binder: GTAGACGTGCTCCCCCAGCACGTCTAC (structured_DNA, 5' 5AmMC6 amino linker) [Random hairpin]
// result 5.82
